tested on: SK-MEL-2; experiment: NCI tumour cell line growth inhibition, 48 h
Active and inactive are the calls of the source. Cut-off read from the data, not from the text of the source: active = GI50 up to about 1.1 µM and inactive = higher.
Your response should consist of one outcome taken from label 1 (active), label 0 (inactive)

Below, 5 compounds whose answers are already recorded.
| compound | assayed-target | cat |
| --- | --- | --- |
| Cc1c(NC(=S)NC(=O)c2ccc([N+](=O)[O-])cc2)c(=O)n(-c2ccccc2)n1C | SK-MEL-2 | label 0 |
| C[C@H]1[C@H](C)CC[C@]2(C(=O)OC3OC(CO)C(O)C(O)C3O)CC[C@]3(C)C(=CC[C@@H]4[C@@]5(C)C[C@H]6OC(=O)c7cc(O)c(O)c(O)c7-c7c(cc(O)c(O)c7O)C(=O)O[C@@H]6C(CO)(CO)[C@@H]5CC[C@]43C)[C@H]12 (stereo partly drawn) | SK-MEL-2 | label 0 |
| O=C(c1ccco1)N1CCN(C(=O)c2ccco2)C1=S | SK-MEL-2 | label 0 |
| O=C(CNC(=O)OCc1ccccc1)Oc1ccccc1 | SK-MEL-2 | label 0 |
| BrC1=CC=C2NCCCCCC/N=C3\C=CC(Br)=CC=C3NCCCCCC/N=C\2C=C1 | SK-MEL-2 | label 0 |

Entry "Cc1ccc(-n2c(C)nc3c2C(=O)c2ccccc2C3=O)cc1" : call = ?
label 0

Recorded call for "Cc1cc2oc(C)c(S(=O)(=O)NC(=O)Nc3ccc(Cl)cc3)c(=O)c2c(=O)o1" ?
label 0

Name the outcome recorded for Cc1cc2c(c3oc(C(O)(CO)C4CO4)cc(=O)c13)C(=O)c1c(O)cccc1C2=O (stereo not drawn) in the assay.
label 1

* * *

system: MDA-MB-231; experiment: NCI tumour cell line growth inhibition, 48 h
Activity calls are given as the source filed them. Rule as the data show it: active = GI50 up to about 1.1 µM and inactive = higher.
parameter: GI50

Example cases with answers are listed next.
| compound | parameter | experimental-value |
| --- | --- | --- |
| O=C1Cc2c(-c3cccs3)cc(-c3ccccc3)nc2-c2ccccc2N1 | GI50 | 9.48 µM (inactive) |
| CCN(CC(COc1ccc2c(c1)[n+]([O-])nc(N)[n+]2[O-])OC(C)=O)C(C)=O (stereo unspecified) | GI50 | > 100 µM (inactive) |
| COC(=O)[C@@H]1CN(C(C)=O)C(=O)N1 | GI50 | 5.06 µM (inactive) |
| Cc1c(Cl)c(=O)oc2cc(OCC(=O)c3ccccc3)ccc12 | GI50 | 29.4 µM (inactive) |
| NC(=O)Nc1c(Cl)cc(S(N)(=O)=O)cc1Cl | GI50 | > 100 µM (inactive) |

Reported GI50 for "O/N=C1\CSc2ccccc2C1" was > 100 µM (inactive)

* * *

system: LOX IMVI; experiment: NCI tumour cell line growth inhibition, 48 h
Activity calls are given as the source filed them. Rule as the data show it: active = GI50 up to about 1.1 µM and inactive = higher.
The categories you may choose from are yes (1) = active, no (0) = inactive

# count of solved cases: 3
| compound | cat |
| --- | --- |
| CC1C[C@]2(C)C(=O)N(c3ccccc3)C(=N)[C@@H]2N(C)c2ccccc21 (some centres not stated) | no (0) |
| C=C1C(=O)O[C@H]2[C@H]1CC(=O)/C(C)=C/CC[C@@]1(C)O[C@@H]21 | yes (1) |
| CC(C)(C)c1cc(C(=O)C2Cc3ccccc3C(=O)O2)cc(C(C)(C)C)c1O (configuration not stated) | no (0) |

// return assay outcome for "CC[N+](C)(C)c1ccc(C(=C2C=CC(=[N+](C)C)C=C2)c2ccc(N(C)C)cc2)cc1"
no (0)

Could you check what this test reported for CC1=CP(=O)(c2c(C(C)C)cc(C(C)C)cc2C(C)C)CCC1Cl (configuration not stated) ?
no (0)

Record lookup: outcome of this test for C=CCOCCC(CC=C)C(=O)CC(=O)OC (configuration not stated) ?
no (0)

Test call for this compound, please: "COc1ccc(-c2cc(O)c3cc4c(cc3n2)OCO4)cc1OC"
no (0)
